Test system: DU-145
Assay: NCI tumour cell line growth inhibition, 48 h
The source made the active and inactive calls. Rule as the data show it: active = GI50 up to about 1.1 µM and inactive = higher.
Pick one: active, inactive

See these solved cases before continuing.
- NC1CC(=O)c2sccc21 (stereo not given): inactive
- COc1ccc([S+]([O-])Cc2cc(OC)ccc2OC)cc1 (stereo not given): inactive
- COc1cc2c3cc1Oc1c(OC)c(OC)cc4c1C(Cc1ccc(O)c(c1)Oc1ccc(cc1)CC3N(C)CC2)N(C)CC4 (stereo not given): inactive
- CN(C)CCN1C(=O)c2cccc3cc([N+](=O)[O-])cc(c23)C1=O [MITONAFIDE]: active

Next molecule, please.
Incoming: // param item: O=C(COC(c1ccc(F)cc1)c1ccc(F)cc1)N1CCN(CCCc2ccccc2)CC1 ; yields the recorded call
Outgoing: inactive
